Assignment: determine reported pIC50 for the given compounds.
# System: NFAT
# assay_text: Cellular NFAT-reporter-gene assay (GloResponse NFAT-RE-luc2P HEK293)
# Format: cell-based
# condition_details: Homo sapiens, HEK293, 16 h, read-out: NFAT-reporter-gene assay IC50
pIC50: −log10 of the molar value.

// solved cases for pIC50 follow
{"compound": "CCCCOC(=O)c1ccc2[nH]c(C[C@@H](C)[C@@H](O)[C@H]3C(=O)N[C@@H](CC)C(=O)N(C)CC(=O)N(C)[C@@H](CC(C)C)C(=O)N[C@@H](C(C)C)C(=O)N(C)[C@@H](CC(C)C)C(=O)N[C@@H](C)C(=O)N[C@H](C)C(=O)N(C)[C@@H](CC(C)C)C(=O)N(C)[C@@H](CC(C)C)C(=O)N(C)[C@@H](C(C)C)C(=O)N3C)nc2c1", "pIC50": 5.00}
{"compound": "CC[C@@H]1NC(=O)[C@H]([C@H](O)[C@H](C)Cc2nc3cc(NC(=O)C(F)(F)F)ccc3[nH]2)N(C)C(=O)[C@H](C(C)C)N(C)C(=O)[C@H](CC(C)C)N(C)C(=O)[C@H](CC(C)C)N(C)C(=O)[C@@H](C)NC(=O)[C@H](C)NC(=O)[C@H](CC(C)C)N(C)C(=O)[C@H](C(C)C)NC(=O)[C@H](CC(C)C)N(C)C(=O)CN(C)C1=O", "pIC50": 5.42}
{"compound": "CC[C@@H]1NC(=O)[C@H]([C@H](O)[C@H](C)Cc2nc3ncnc(O)c3[nH]2)N(C)C(=O)[C@H](C(C)C)N(C)C(=O)[C@H](CC(C)C)N(C)C(=O)[C@H](CC(C)C)N(C)C(=O)[C@@H](C)NC(=O)[C@H](C)NC(=O)[C@H](CC(C)C)N(C)C(=O)[C@H](C(C)C)NC(=O)[C@H](CC(C)C)N(C)C(=O)CN(C)C1=O", "pIC50": "< 5.00"}
{"compound": "CC[C@@H]1NC(=O)[C@H]([C@H](O)[C@H](C)Cc2nc3cc(C(=O)NC(CCC(=O)O)C(=O)NC(CCC(=O)O)C(=O)O)ccc3[nH]2)N(C)C(=O)[C@H](C(C)C)N(C)C(=O)[C@H](CC(C)C)N(C)C(=O)[C@H](CC(C)C)N(C)C(=O)[C@@H](C)NC(=O)[C@H](C)NC(=O)[C@H](CC(C)C)N(C)C(=O)[C@H](C(C)C)NC(=O)[C@H](CC(C)C)N(C)C(=O)CN(C)C1=O (stereo partly drawn)", "pIC50": "< 5.00"}
{"compound": "CC[C@@H]1NC(=O)[C@H]([C@H](O)[C@H](C)Cc2nc3cc(C(=O)NN)ccc3[nH]2)N(C)C(=O)[C@H](C(C)C)N(C)C(=O)[C@H](CC(C)C)N(C)C(=O)[C@H](CC(C)C)N(C)C(=O)[C@@H](C)NC(=O)[C@H](C)NC(=O)[C@H](CC(C)C)N(C)C(=O)[C@H](C(C)C)NC(=O)[C@H](CC(C)C)N(C)C(=O)CN(C)C1=O", "pIC50": "< 5.00"}

Let's switch to this compound now.
Request: Identify pIC50 associated with the compound `CC[C@@H]1NC(=O)[C@H]([C@H](O)[C@H](C)Cc2nc3nc(O)nc(O)c3[nH]2)N(C)C(=O)[C@H](C(C)C)N(C)C(=O)[C@H](CC(C)C)N(C)C(=O)[C@H](CC(C)C)N(C)C(=O)[C@@H](C)NC(=O)[C@H](C)NC(=O)[C@H](CC(C)C)N(C)C(=O)[C@H](C(C)C)NC(=O)[C@H](CC(C)C)N(C)C(=O)CN(C)C1=O`
Response: < 5.00

---

# experimental_target: calcineurin (Homo sapiens, UniProt P62937+P63098+Q08209)
# assay_text: Inhibition of the phosphatase activity of calcineurin (scintillation-proximity-assay, in presence of Cyp18);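 also: calcineurin dephosphorylation of a ³³P-labelled RII phosphopeptide, captured on streptavidin-coated wells and read by scintillation counting, with uninhibited enzyme activity taken as 100%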
Assignment: determine reported pIC50 for the given molecules.
Give bare numbers, as −log10 of the molar value.

// solved cases for pIC50 follow
{"molecule": "CC[C@@H]1NC(=O)[C@H]([C@H](O)[C@H](C)Cc2nc3cc(C(=O)NCCN4CCOCC4)ccc3[nH]2)N(C)C(=O)[C@H](C(C)C)N(C)C(=O)[C@H](CC(C)C)N(C)C(=O)[C@H](CC(C)C)N(C)C(=O)[C@@H](C)NC(=O)[C@H](C)NC(=O)[C@H](CC(C)C)N(C)C(=O)[C@H](C(C)C)NC(=O)[C@H](CC(C)C)N(C)C(=O)CN(C)C1=O [Compound 53]", "pIC50": 5.38}
{"molecule": "CC[C@@H]1NC(=O)[C@H]([C@H](O)[C@H](C)Cc2nc3cc(C(=O)OCCN4CCOCC4)ccc3[nH]2)N(C)C(=O)[C@H](C(C)C)N(C)C(=O)[C@H](CC(C)C)N(C)C(=O)[C@H](CC(C)C)N(C)C(=O)[C@@H](C)NC(=O)[C@H](C)NC(=O)[C@H](CC(C)C)N(C)C(=O)[C@H](C(C)C)NC(=O)[C@H](CC(C)C)N(C)C(=O)CN(C)C1=O [Compound 27]", "pIC50": 5.19}

Let's switch to this molecule now.
Request: Write down measured pIC50 (calcineurin (Homo sapiens, UniProt P62937+P63098+Q08209)) for this molecule. CCOC(=O)c1ccc2[nH]c(C[C@@H](C)[C@@H](O)[C@H]3C(=O)N[C@@H](CC)C(=O)N(C)CC(=O)N(C)[C@@H](CC(C)C)C(=O)N[C@@H](C(C)C)C(=O)N(C)[C@@H](CC(C)C)C(=O)N[C@@H](C)C(=O)N[C@H](C)C(=O)N(C)[C@@H](CC(C)C)C(=O)N(C)[C@@H](CC(C)C)C(=O)N(C)[C@@H](C(C)C)C(=O)N3C)nc2c1 [Compound 9]
Response: 5.15

---

# assay_text: Determination of cell permeability in PAMPA cell membranes (Parallel Artificial Membrane Permeability Assay)
# Format: in vitro ADME
# condition_details: 500 μM, Hepes buffer pH 7.4, 16 hours, room temperature
reported_endpoint: Cell permeability in PAMPA-cell membranes

// solved cases for Cell permeability in PAMPA-cell membranes follow
{"cpd_smiles": "CC[C@@H]1NC(=O)[C@H]([C@H](O)[C@H](C)Cc2nc3cc(C(=N)N)ccc3[nH]2)N(C)C(=O)[C@H](C(C)C)N(C)C(=O)[C@H](CC(C)C)N(C)C(=O)[C@H](CC(C)C)N(C)C(=O)[C@@H](C)NC(=O)[C@H](C)NC(=O)[C@H](CC(C)C)N(C)C(=O)[C@H](C(C)C)NC(=O)[C@H](CC(C)C)N(C)C(=O)CN(C)C1=O", "value_reported": "4 % flux"}
{"cpd_smiles": "CC[C@@H]1NC(=O)[C@H]([C@H](O)[C@H](C)Cc2nc3cc(S(=O)(=O)O)ccc3[nH]2)N(C)C(=O)[C@H](C(C)C)N(C)C(=O)[C@H](CC(C)C)N(C)C(=O)[C@H](CC(C)C)N(C)C(=O)[C@@H](C)NC(=O)[C@H](C)NC(=O)[C@H](CC(C)C)N(C)C(=O)[C@H](C(C)C)NC(=O)[C@H](CC(C)C)N(C)C(=O)CN(C)C1=O", "value_reported": "4.1 % flux"}

Request: Identify Cell permeability in PAMPA-cell membranes associated with the compound `CC[C@@H]1NC(=O)[C@H]([C@H](O)[C@H](C)Cc2nc3cccc(C(=O)O)c3[nH]2)N(C)C(=O)[C@H](C(C)C)N(C)C(=O)[C@H](CC(C)C)N(C)C(=O)[C@H](CC(C)C)N(C)C(=O)[C@@H](C)NC(=O)[C@H](C)NC(=O)[C@H](CC(C)C)N(C)C(=O)[C@H](C(C)C)NC(=O)[C@H](CC(C)C)N(C)C(=O)CN(C)C1=O`
Response: 3.3 % flux

---

# assay_text: in vitro
# condition_details: human, Caco-2, pH 7.4
Assignment: determine reported Papp B→A at 2 h, 5 μM for the given compounds.
Numbers only, in ×10⁻⁶ cm/s.

{"compound": "CC[C@@H]1NC(=O)[C@H]([C@H](O)[C@H](C)Cc2nc3cccc(C(=O)O)c3[nH]2)N(C)C(=O)[C@H](C(C)C)N(C)C(=O)[C@H](CC(C)C)N(C)C(=O)[C@H](CC(C)C)N(C)C(=O)[C@@H](C)NC(=O)[C@H](C)NC(=O)[C@H](CC(C)C)N(C)C(=O)[C@H](C(C)C)NC(=O)[C@H](CC(C)C)N(C)C(=O)CN(C)C1=O [Compound 28]", "measurement_unit": "×10⁻⁶ cm/s", "Papp B→A at 2 h, 5 μM": 0.3}
{"compound": "CC[C@@H]1NC(=O)[C@H]([C@H](O)[C@H](C)Cc2nc3ccc(C(=O)O)cc3[nH]2)N(C)C(=O)[C@H](C(C)C)N(C)C(=O)[C@H](CC(C)C)N(C)C(=O)[C@H](CC(C)C)N(C)C(=O)[C@@H](C)NC(=O)[C@H](C)NC(=O)[C@H](CC(C)C)N(C)C(=O)[C@H](C(C)C)NC(=O)[C@H](CC(C)C)N(C)C(=O)CN(C)C1=O [Compound 5]", "measurement_unit": "×10⁻⁶ cm/s", "Papp B→A at 2 h, 5 μM": 0.13}
{"compound": "CC[C@@H]1NC(=O)[C@H]([C@H](O)[C@H](C)Cc2nc3cc(S(N)(=O)=O)ccc3[nH]2)N(C)C(=O)[C@H](C(C)C)N(C)C(=O)[C@H](CC(C)C)N(C)C(=O)[C@H](CC(C)C)N(C)C(=O)[C@@H](C)NC(=O)[C@H](C)NC(=O)[C@H](CC(C)C)N(C)C(=O)[C@H](C(C)C)NC(=O)[C@H](CC(C)C)N(C)C(=O)CN(C)C1=O [Compound 34]", "measurement_unit": "×10⁻⁶ cm/s", "Papp B→A at 2 h, 5 μM": 0.87}

Request: Identify Papp B→A at 2 h, 5 μM associated with the compound CC[C@@H]1NC(=O)[C@H]([C@H](O)[C@H](C)Cc2nc3cc(C(N)=O)ccc3[nH]2)N(C)C(=O)[C@H](C(C)C)N(C)C(=O)[C@H](CC(C)C)N(C)C(=O)[C@H](CC(C)C)N(C)C(=O)[C@@H](C)NC(=O)[C@H](C)NC(=O)[C@H](CC(C)C)N(C)C(=O)[C@H](C(C)C)NC(=O)[C@H](CC(C)C)N(C)C(=O)CN(C)C1=O [Compound 23]
Response: 0.6
